Assay: Primary redox qHTS assay for identification of artifact compounds. (AID 1845223);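 also: 0% = DMSO and 100% = reference compound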
Details: Amplex Red/HRP redox cycling with DTT, fluorescence; series mostly up to 53.8 µM
Source text: PI: Alexander Tropsha Ph.D. UNC Eshelman School of Pharmacy University of North Carolina, Chapel Hill, North Carolina Hits from high-throughput screening (HTS) of chemical libraries are often false positives due to their interference with the assay detection technology. […] Using these curated datasets, we developed and validated several Quantitative Structure-Interference Relationship (QSIR) models to predict nuisance behavior. […]
Inconclusive results are not listed. The source made the active and inactive calls. Calls follow the shape of the dose curve; as a rule, active = well fitted activation curve with a large enough effect; inconclusive = small, poorly fitted or top-dose-only effect; inactive = flat fitted curve, though single readings scatter.
EXPERIMENTAL READOUT: redox activity (% of DA3003)

CC[C@@H](O)C[C@@H]1C(C)=C[C@@H]2CCCC[C@@H]2[C@@]1(C)C(=O)O    inactive
C/C=C/c1cc(OC)c2c(c1)[C@@H](C)[C@@H](c1ccc(O)c(OC)c1)O2    inactive
C=CC1C(OC2OC(CO)C(O)C(O)C2O)OC=C(C(=O)OC)C1CC(=O)OCC1C(C)C(O)CC1C(CO)COC(=O)CC1C(C(=O)O)=COC(OC2OC(CO)C(O)C(O)C2O)/C1=C\C (centres undefined)    14.1% [at 11.5 µM] (inactive)
Oc1ccc2nc(CN3CCC(Cc4ccccc4F)CC3)[nH]c2c1    inactive

====

System: Zika virus NS2B-NS3 protease (unlinked complex)
Test: Primary screen GU Rhodamine qHTS for Zika virus inhibitors: Unlinked NS2B-NS3 protease assay (AID 1347159); also: % is scaled to controls: 0 for no effect and ±100 for the full control effect; nearly all actives have a fitted effect of over 60% in size
Conditions: Recombinant ZIKV NS2B-NS3 protease, Rhodamine110 substrate fluorescence; series mostly up to 107 µM
Inconclusive results are not listed. Activity calls are given as the source filed them. Calls come from the whole dose curve; as a rule, active = well fitted inhibition curve with a large enough effect; inconclusive = small, poorly fitted or top-dose-only effect; inactive = no such curve, though single readings can be large or run the other way.
EXPERIMENTAL READOUT: outcome

CC1(C)CC[C@]2(C(=O)O[C@@H]3O[C@H](CO)[C@@H](O)[C@H](O)[C@H]3O)CC[C@]3(C)C(=CCC4[C@@]5(C)CC[C@H](O[C@@H]6O[C@H](C(=O)O)[C@@H](O)[C@H](O[C@@H]7O[C@H](CO)[C@H](O)[C@H](O)[C@H]7O)[C@H]6O)C(C)(C)C5CC[C@]43C)C2C1 (stereo partly drawn)    inactive
C#CCN(Cc1cc2c(=O)n(C)c(CN3CCN(C)CC3)nc2cc1Cl)c1ccc(C(=O)NCc2cccnc2)cc1    inactive
Cn1nnc(-c2ccc(-c3ccc(N4C[C@H](COP(=O)(O)O)OC4=O)cc3F)cn2)n1    inactive

====

System: HEK293
Experiment: Cytotoxic Profiling of Annotated Libraries Using Quantitative High-Throughput Screening (AID 1296008); also: % is scaled to controls: 0 for no effect and ±100 for the full control effect; nearly all actives have a fitted effect of over 60% in size
Conditions: Five cell lines viability, CellTiter-Glo ATP luminescence, 48-72 h; stronger effect = lower value
Inconclusive results are not listed.
Provide the recorded max response for the entries that follow.
One number for each entry, in %.

Field: example entries. Status: answers known.
C=C[C@@H]1[C@H](O[C@@H]2O[C@H](CO)[C@@H](O)[C@H](O)[C@H]2O)OC=C(C(=O)O)[C@H]1CCOC(=O)/C=C/c1ccc(O)c(O)c1    4.3
COC(=O)C[C@H]1C(C)(C)[C@H](OC(=O)C(C)C)[C@@]2(O)C(=O)[C@]1(C)C1CC[C@]3(C)C(CC(=O)O[C@H]3c3ccoc3)[C@]13O[C@@H]32 (stereo not given in full)    -5.5
NC1CCCCN(c2c(F)cc3c(=O)c(C(=O)O)cn(C4CC4)c3c2Cl)C1 (stereo not given)    -12.1
Cn1c2ccc(F)cc2c2c(C(=O)N3CCCC3)cn(-c3ccccc3)c(=O)c21    -22.1

We next turn to a different compound, shown below.
Which max response is reported for this compound? Fc1ccc2nc(CCC#Cc3ccccn3)cn2c1 -6.15
